Value source: paper PMC2678238

# system_name: Mn(II)-loaded PfMetAP-II (Pyrococcus furiosus, UniProt P56218)
# Sequence (P56218 whole entry): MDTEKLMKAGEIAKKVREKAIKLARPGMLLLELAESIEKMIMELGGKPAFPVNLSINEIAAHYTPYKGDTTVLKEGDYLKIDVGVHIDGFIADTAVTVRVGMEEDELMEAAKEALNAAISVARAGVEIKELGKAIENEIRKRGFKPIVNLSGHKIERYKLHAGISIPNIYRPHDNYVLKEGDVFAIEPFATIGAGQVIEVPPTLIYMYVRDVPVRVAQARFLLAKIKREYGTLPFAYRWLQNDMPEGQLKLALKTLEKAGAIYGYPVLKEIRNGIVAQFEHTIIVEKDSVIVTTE
# test_protocol: Isothermal titration calorimetry
# Format: binding
# cond: [MnMn(PfMetAP-II)]; ITC, 25.0 °C, HEPES pH 7.5
property_name: Kd (µM)

CCSCC[C@@H](N)C(O)C(=O)N[C@@H](C)c1cccc2ccccc12 (mixture of isomers) ... 26

====

# system_name: UniProt P56218
pKi: −log10 of the molar value.
property_name: pKi

c1ccc2cc(CSc3nnc[nH]3)ccc2c1 ... 3.36

====

# system_name: Co(II)-loaded EcMetAP-I (Escherichia coli)
# Sequence (P0AE18 whole entry): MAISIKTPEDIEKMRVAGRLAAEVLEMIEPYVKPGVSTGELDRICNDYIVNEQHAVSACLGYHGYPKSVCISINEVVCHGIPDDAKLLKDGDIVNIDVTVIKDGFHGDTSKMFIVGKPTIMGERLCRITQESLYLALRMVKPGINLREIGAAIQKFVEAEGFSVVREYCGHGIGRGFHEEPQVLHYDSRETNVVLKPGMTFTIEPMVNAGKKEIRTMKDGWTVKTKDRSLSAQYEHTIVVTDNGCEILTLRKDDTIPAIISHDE
# test_protocol: Enzymatic assay of MetAP
# Format: biochemical
pKi: −log10 of the molar value.
property_name: pKi

c1ccc2cc(CSc3nnc[nH]3)ccc2c1 ... 5.10

====

# system_name: Mn(II)-loaded EcMetAP-I (Escherichia coli)
property_name: IC50 (µM)

c1ccc2cc(CSc3nnc[nH]3)ccc2c1 ... 1000

====

# system_name: Co(II)-loaded PfMetAP-II (Pyrococcus furiosus, UniProt P56218)
# Sequence (P56218 whole entry): as the sequence (P56218 whole entry) above
# test_protocol: Enzymatic assay of MetAP
# Assay type: biochemical
property_name: Ki (µM)

c1ccc2cc(CSc3nnc[nH]3)ccc2c1 [A-310840] ... 3

====

# system_name: Mn(II)-loaded EcMetAP-I (Escherichia coli, UniProt P0AE18)
pKi: −log10 of the molar value.
property_name: pKi

c1ccc2cc(CSc3nnc[nH]3)ccc2c1 [A-310840] ... 3.12

====

# system_name: Mn(II)-loaded PfMetAP-II (Pyrococcus furiosus)
# test_protocol: Isothermal titration calorimetry
# Type: binding
property_name: Kd (µM)

c1ccc2cc(CSc3nnc[nH]3)ccc2c1 [A-310840] ... 666

====

# system_name: Co(II)-loaded PfMetAP-II (Pyrococcus furiosus, UniProt P56218)
# test_protocol: Isothermal titration calorimetry
# Type: binding
property_name: Kd

c1ccc2cc(CSc3nnc[nH]3)ccc2c1 ... 2000 nM

====

# system_name: UniProtKB P0AE18
# test_protocol: Enzymatic assay of MetAP
# Format: biochemical
property_name: IC50

c1ccc2cc(CSc3nnc[nH]3)ccc2c1 ... 44 µM

====

# system_name: UniProtKB P56218
pIC50: −log10 of the molar value.
property_name: pIC50

c1ccc2cc(CSc3nnc[nH]3)ccc2c1 ... 4.82

====

# system_name: Co(II)-loaded PfMetAP-II (Pyrococcus furiosus)
# test_protocol: Enzymatic assay of MetAP
# Assay type: biochemical
# cond: [CoCo(PfMetAP-II)]; competitive inhibition fit, substrate MGMM
property_name: Ki (nM)

CCSCC[C@@H](N)C(O)C(=O)N[C@@H](C)c1cccc2ccccc12 (mixture of isomers) ... 2000

====

# system_name: UniProt:P0AE18
# test_protocol: Isothermal titration calorimetry
# Format: binding
# cond: [MnMn(EcMetAP-I)]; ITC, 25.0 °C, HEPES pH 7.5
property_name: Kd (µM)

CCSCC[C@@H](N)C(O)C(=O)N[C@@H](C)c1cccc2ccccc12 (mixture of isomers) ... 50
